Origin of measurements: paper PMC5118987

System: HIV-1 clinical isolates
Test: Antiviral assay against HIV-1 clinical isolates in fresh human PBMCs (RT endpoint)
Settings: Human immunodeficiency virus 1, PBMC, HIV-1 subtype B isolate 89BZ_167, human PBMCs
pEC50: −log10 of the molar value.
# pEC50 listing for each entry below

| SMILES DATA | TGT | pEC50 |
| --- | --- | --- |
| O=C(NCc1c(F)cc(F)cc1F)c1cn2c(c(O)c1=O)C(=O)N1[C@H]3CC[C@H](C3)O[C@@H]1C2 | HIV-1 clinical isolates | 9.00 |
| Cc1cn([C@H]2C[C@H](N=[N+]=[N-])[C@@H](CO)O2)c(=O)[nH]c1=O | HIV-1 clinical isolates | 8.44 |
| C[C@@H]1CCO[C@H]2Cn3cc(C(=O)NCc4ccc(F)cc4F)c(=O)c(O)c3C(=O)N12 | HIV-1 clinical isolates | 8.85 |
